# system: Aryl hydrocarbon receptor (Homo sapiens) (UniProt P35869)
# Sequence (P35869 whole entry, looked up): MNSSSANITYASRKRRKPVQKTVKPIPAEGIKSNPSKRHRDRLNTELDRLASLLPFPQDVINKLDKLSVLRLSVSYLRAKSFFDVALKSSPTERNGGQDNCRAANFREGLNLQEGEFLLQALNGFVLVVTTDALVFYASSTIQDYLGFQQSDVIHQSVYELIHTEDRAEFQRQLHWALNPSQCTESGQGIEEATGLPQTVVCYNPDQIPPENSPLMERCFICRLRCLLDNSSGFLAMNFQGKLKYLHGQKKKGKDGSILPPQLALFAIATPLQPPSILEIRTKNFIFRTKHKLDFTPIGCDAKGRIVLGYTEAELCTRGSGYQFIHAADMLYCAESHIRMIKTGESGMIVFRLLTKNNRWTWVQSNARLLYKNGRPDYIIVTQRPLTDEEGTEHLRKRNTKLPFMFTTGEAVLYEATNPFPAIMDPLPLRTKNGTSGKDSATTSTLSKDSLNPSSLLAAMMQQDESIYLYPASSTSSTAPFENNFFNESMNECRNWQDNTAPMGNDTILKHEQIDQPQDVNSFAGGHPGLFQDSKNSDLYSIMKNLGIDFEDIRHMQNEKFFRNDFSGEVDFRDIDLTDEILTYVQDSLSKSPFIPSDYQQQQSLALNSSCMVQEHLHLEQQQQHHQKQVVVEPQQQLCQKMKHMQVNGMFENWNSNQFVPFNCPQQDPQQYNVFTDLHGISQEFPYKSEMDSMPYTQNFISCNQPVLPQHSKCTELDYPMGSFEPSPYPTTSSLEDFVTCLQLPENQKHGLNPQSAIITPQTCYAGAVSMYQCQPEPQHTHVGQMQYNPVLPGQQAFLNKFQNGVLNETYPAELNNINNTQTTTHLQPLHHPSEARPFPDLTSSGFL
# test_details: qHTS assay to identify small molecule that activate the aryl hydrocarbon receptor (AhR) signaling pathway (AID 743085); note: nearly all actives have a fitted effect of over 15% in size;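 for activation: HG2L7.5c1 human HepG2 liver cells with stably integrated DRE-driven firefly reporter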
# conditions: HepG2 AhR-luc (HG2L7.5c1), luciferase, 24 h; series mostly up to 70.3 µM
Results filed as inconclusive are left out. Calls of active or inactive are those of the source. Calls come from the whole dose curve; as a rule, active = well fitted activation curve with a large enough effect in the repeat runs; inconclusive = weak or mixed curves; inactive = no such curve, though single readings can be large or run the other way.
Write down one outcome, taken from t = active, f = inactive

Query string: What outcome does the record of this test show for Cc1cc(C(C)(C)c2ccc(O)c(C)c2)ccc1O ?
Result string: f

Query string: What outcome does the record of this test show for C=CCN1CC[C@]23c4c5ccc(O)c4O[C@H]2[C@@H](O)C=C[C@H]3[C@H]1C5 ?
Result string: f

Query string: What outcome does the record of this test show for CCc1cc(OC)c(C[C@@H](C)N)cc1OC ?
Result string: f

Query string: What outcome does the record of this test show for CN[C@@H]1C[C@@H](c2ccc(Cl)c(Cl)c2)c2ccccc21 ?
Result string: t

Query string: What outcome does the record of this test show for O=C1OC2(c3cc(Br)c(O)cc3Oc3c2cc(Br)c(O)[c]3[Hg])c2ccccc21 (centres undefined) ?
Result string: f

Query string: What outcome does the record of this test show for CC(C)=CCN1CC[C@]2(C)c3cc(O)ccc3C[C@H]1[C@H]2C ?
Result string: f

Query string: What outcome does the record of this test show for Oc1c(Cl)ccc(Cl)c1Cl ?
Result string: f

Query string: What outcome does the record of this test show for C[C@H]1[C@H]2Cc3ccc(O)cc3[C@]1(C)CCN2CCc1ccccc1 ?
Result string: t

Query string: What outcome does the record of this test show for C[C@H]1CC[C@]2(NC1)O[C@H]1C[C@H]3[C@@H]4CC[C@H]5C[C@@H](O)CC[C@]5(C)[C@H]4CC[C@]3(C)[C@H]1[C@@H]2C ?
Result string: f

Query string: What outcome does the record of this test show for c1ccncc1 ?
Result string: f

Query string: What outcome does the record of this test show for C[C@]12CCC(=O)C[C@@H]1CC[C@@H]1[C@@H]2CC[C@@]2(C)[C@H]1CC[C@]2(C)O ?
Result string: f

Query string: What outcome does the record of this test show for CCCCCN(C)CCC(O)(P(=O)(O)O)P(=O)(O)O ?
Result string: f

Query string: What outcome does the record of this test show for O=C(OCCN1CCCCC1)C(O)(c1ccccc1)c1ccccc1 ?
Result string: f

Query string: What outcome does the record of this test show for Oc1ccc2c3c1O[C@H]1[C@@H](O)C=C[C@H]4[C@H](C2)NCC[C@@]341 ?
Result string: f

Query string: What outcome does the record of this test show for O=P(OC(CCl)CCl)(OC(CCl)CCl)OC(CCl)CCl ?
Result string: f

Query string: What outcome does the record of this test show for NC1=NC(=O)N2CC12 (centres undefined) ?
Result string: f

Query string: What outcome does the record of this test show for OC[C@@H](O)[C@H]1O[C@@H]2O[C@@H](C(Cl)(Cl)Cl)O[C@@H]2[C@H]1O ?
Result string: f

Query string: What outcome does the record of this test show for CC(=O)[C@@]1(O)CC[C@H]2[C@@H]3CCC4=CC(=O)CC[C@]4(C)C3(F)[C@@H](O)C[C@@]21C (some centres undefined) ?
Result string: f

Query string: What outcome does the record of this test show for Brc1ccc(Br)c(Br)c1 ?
Result string: f

Query string: What outcome does the record of this test show for CNC(=O)OCC[N+](C)(C)C ?
Result string: f

Query string: What outcome does the record of this test show for N#CCCNCCC#N ?
Result string: f

Query string: What outcome does the record of this test show for Clc1ccc2c(c1)C(c1ccccc1)=NCc1nncn1-2 ?
Result string: f

Query string: What outcome does the record of this test show for c1ccc2c(c1)ccc1ncccc12 ?
Result string: f

Query string: What outcome does the record of this test show for C=CCN(C1=NCCN1)c1c(Cl)cccc1Cl ?
Result string: f
